- Test system: OVCAR-8
- protocol description: NCI tumour cell line growth inhibition, 48 h
Activity calls are given as the source filed them. Rule as the data show it: active = GI50 up to about 1.1 µM and inactive = higher.
property: GI50

Example entries begin here.
molecule=Cc1c(C#N)c(=O)[nH]c(=O)n1CCN1CCN(C(=O)NCCCCCCNC(=O)N2CCN(CCn3c(C)c(C#N)c(=O)[nH]c3=O)CC2)CC1 value_measured="> 100 µM (inactive)"
molecule=NCCCCCS(=O)(=O)O value_measured="> 100 µM (inactive)"
molecule="CCCC(O)c1ccc2[nH]c3c(C)cc([N+](=O)[O-])c(C)c3c2c1 (stereo unspecified)" value_measured="> 100 µM (inactive)"
molecule=COc1cc([C@@H]2c3cc4c(cc3C[C@H]3COC(=O)[C@@H]32)OCO4)cc2c1OCO2 value_measured="< 0.01 µM (active)"

For the 3 molecules below, give their GI50 values.
1. COc1cc2cc(C(=O)N3CC(COS(C)(=O)=O)c4ccc(O)cc43)[nH]c2c(OC)c1OC (stereo unspecified)
2. CCCCCCCCCCCC[N+]12CC[N+](CCN)(CC1)CC2
3. CC(C)(C)OC(=O)N1C(c2cccnc2)=CC[C@H]2C3CC=C(c4cccnc4)[C@@]3(C)CC[C@@H]21 (stereo partly specified)

A.
< 0.0001 µM (active)
> 100 µM (inactive)
4.02 µM (inactive)

For the 5 molecules below, give their GI50 values.
1. COCc1c(CO)cnc(C)c1OC1OC(CO)C(O)C(O)C1O (stereo unspecified)
2. COc1c(C)c(C/C=C(\C)CC/C=C(\C)CC/C=C(\C)CCC=C(C)C)c(OC)c2ccccc12
3. CCOC(=O)c1csc(NC(=O)C(C)N2CCOCC2)n1 (stereo unspecified)
4. CC1(C)O[C@H]2OC(CO)C(OS(C)(=O)=O)[C@H]2O1 (stereo partly specified)
5. O=c1[nH]n(Cc2ccccc2Cl)c2ccccc12

A.
["> 100 µM (inactive)", "> 100 µM (inactive)", "> 100 µM (inactive)", "> 100 µM (inactive)", "> 100 µM (inactive)"]

For the 8 molecules below, give their GI50 values.
1. O=C(N/N=C\c1c(O)ccc2ccccc12)c1ccncc1
2. CC(=O)OCc1cc(OC(C)=O)cnc1COC(C)=O
3. CCOC(=O)c1csc(C(CSCc2ccc(OC)cc2)N2C(=O)c3ccccc3C2=O)n1 (stereo unspecified)
4. COC(C/C(=C/CO[Si](C(C)C)(C(C)C)C(C)C)C(=O)N(C(=O)OC(C)(C)C)c1ccccc1I)OC
5. C/C(=N/NC(=S)N1CCCCC1)c1cccc(/C(C)=N\NC(=S)N2CCCCC2)n1
6. CN1CCC2(CC1)/C(=N/C1CCCCC1)NC(=O)N2c1ccccc1
7. Cc1ccc2cccc(OC(=O)c3cc4c(cc3Cl)Sc3nccn3S4(=O)=O)c2n1
8. CC1(C)CC(=O)C=C(NC(=O)c2ccccc2)C1

A.
1. 0.574 µM (active)
2. > 100 µM (inactive)
3. > 100 µM (inactive)
4. > 100 µM (inactive)
5. 1.67 µM (inactive)
6. > 100 µM (inactive)
7. 4.71 µM (inactive)
8. > 100 µM (inactive)

For the 8 molecules below, give their GI50 values.
1. N=c1oc2ccc([N+](=O)[O-])cc2cc1C(=O)Nc1ccccn1
2. CCc1ccc(Nc2cc(=O)[nH]c(SCc3ccccc3)n2)cc1
3. C(=C(c1ccc(OC2CCCCO2)cc1)c1ccc(OC2CCCCO2)cc1)c1ccccc1 (stereo unspecified)
4. COc1ccc(CNc2nc3cc(C(F)(F)F)ccc3nc2C(=O)O)cc1OC
5. O=C(Nc1nnc(-c2c(Cl)c(Cl)c(Cl)c(Cl)c2-c2nc3cc(C(=O)c4ccccc4)ccc3[nH]2)o1)c1ccc(Cl)cc1
6. C=C(C)CC1(O[Si](C)(C)C)C(=O)C(OCC)=C1OCC (stereo unspecified)
7. COC1=CC(=O)C2C(C1=O)C(c1ccc(OC)c(OC)c1)[C@H]2C (stereo partly specified)
8. Oc1cc(CN2CCOCCOCCOCCOCC2)c(O)cc1CN1CCOCCOCCOCCOCC1

A.
1: 92.3 µM (inactive); 2: 44.9 µM (inactive); 3: 0.598 µM (active); 4: 42.6 µM (inactive); 5: 39.2 µM (inactive); 6: > 100 µM (inactive); 7: 20.6 µM (inactive); 8: 40.5 µM (inactive)

For the 8 molecules below, give their GI50 values.
1. COc1ccc2nccc(C3=CCC4CCN(C(=O)c5ccccc5)C3C4)c2c1 (stereo unspecified)
2. O=C(O)C(SC1=NC(=O)C2(NN1)c1ccccc1-c1ccccc12)SC1=NC(=O)C2(NN1)c1ccccc1-c1ccccc12
3. NC(=O)c1nnc2ccc(F)cc2c1N
4. COc1ccc(/C=C/c2onc3c(=O)n(C)nc(-c4ccccc4)c23)cc1
5. Cn1c(N/N=C/c2ccc(Cl)cc2)nc(-c2ccc(Cl)cc2)c(C#N)c1=O
6. C#CC1(OC(C)=O)CCC2C3CC=C4C=C(OC(C)=O)CCC4(C)C3CCC21C (stereo unspecified)
7. C[Si](C)(C)/C=C/CCC(C=O)(CCCl)c1ccccc1 (stereo unspecified)
8. CSc1nc(NC2OC(CO)C(O)C(O)C2O)c(N)c(=O)n1C (stereo unspecified)

A.
> 100 µM (inactive)
> 10 µM (inactive)
> 100 µM (inactive)
> 100 µM (inactive)
14.6 µM (inactive)
19.1 µM (inactive)
27.7 µM (inactive)
> 100 µM (inactive)

For the 4 molecules below, give their GI50 values.
1. NC(=O)C(=CN1CC(=O)NC1=S)C(N)=O
2. Cc1nc2[nH]ccn2c(=O)c1CCO
3. CC(C)(C=O)CC(C#N)/C(=N\NC(N)=O)C(=O)Nc1ccccc1C(N)=O (stereo unspecified)
4. CCN(CC)CCCOC(=O)/C=C/c1c(C)[nH]c(=O)[nH]c1=O

A.
1. > 100 µM (inactive)
2. > 10 µM (inactive)
3. > 100 µM (inactive)
4. 135 µM (inactive)

Q. I have this molecule here, O=c1[nH]c(=O)n(C2CC(O)C(CO)O2)c2nc3ccc4ccccc4c3nc12 (stereo unspecified) , and I need its recorded GI50.
A. 79.1 µM (inactive)
